Target: MYT1 protein (Homo sapiens (Human), UniProt Q99640)
Sequence (Q99640 whole entry): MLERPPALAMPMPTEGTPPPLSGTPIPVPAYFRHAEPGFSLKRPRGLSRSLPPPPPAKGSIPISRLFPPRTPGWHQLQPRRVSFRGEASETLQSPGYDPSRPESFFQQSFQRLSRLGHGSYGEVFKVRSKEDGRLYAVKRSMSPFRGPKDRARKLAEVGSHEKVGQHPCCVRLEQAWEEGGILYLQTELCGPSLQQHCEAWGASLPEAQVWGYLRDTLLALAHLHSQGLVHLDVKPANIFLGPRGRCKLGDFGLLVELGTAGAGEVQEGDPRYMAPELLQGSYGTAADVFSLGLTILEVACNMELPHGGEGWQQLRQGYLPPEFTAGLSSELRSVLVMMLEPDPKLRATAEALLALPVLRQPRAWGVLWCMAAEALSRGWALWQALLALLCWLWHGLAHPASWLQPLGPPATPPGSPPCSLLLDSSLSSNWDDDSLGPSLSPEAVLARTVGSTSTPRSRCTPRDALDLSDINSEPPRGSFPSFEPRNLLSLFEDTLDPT
Assay: Test for binding to ATP binding site of MYT1 (Kinase Tracer 178 / Eu-Anti-GST antibody TR-FRET)
Conditions: ATP binding site of MYT1, 30 minutes at room temperature
pIC50: −log10 of the molar value.
measure.name: pIC50

1: Nc1c(-c2ccc(F)c3[nH]ncc23)c2cc(OCCOC(F)(F)F)c3ncccc3c2[nH]c1=O
2: COc1cc2c(-c3cc(F)c(F)c4[nH]ncc34)c(N)c(=O)[nH]c2c2cc(F)cnc12
Exercise: Min pIC50? 1 | 2 Answer with the label corresponding to your selection.
Solution: 1
(1: 7.72, 2: 8.48)

====

Biological target: UniProt:Q99640
Assay: MYT1 kinase activity inhibition test (ELISA, phosphorylation of Y15 of CDK1)
Assay type: biochemical
Settings: phosphorylation level of Y15 of CDK1 protein caused by MYT1 protein, 60 minutes
measure.name: IC50 (nM)

Consider the reported IC50 for these compounds:
Cc1cc2c(-c3ccc(F)c4[nH]ncc34)c(N)c(=O)[nH]c2c2cccnc12; 0.19
N#Cc1cc2c(-c3ccc(F)c4[nH]ncc34)c(N)c(=O)[nH]c2c2ccccc12; 0.37

A: Nc1c(-c2ccc(F)c3[nH]ncc23)c2cc(C3CCCC3)c3ncccc3c2[nH]c1=O
B: Cc1cc2c(-c3cc(F)c(F)c4[nH]ncc34)c(N)c(=O)[nH]c2c2cccnc12
Exercise: Parameter check: reported IC50 is higher for which label, A or B ? Lab note: record the label of whichever item you select.
Solution: A

====

Biological target: UniProt:Q99640
Experiment: Test for binding to ATP binding site of MYT1 (Kinase Tracer 178 / Eu-Anti-GST antibody TR-FRET)
Details: ATP binding site of MYT1, 30 minutes at room temperature
pIC50: −log10 of the molar value.
measure.name: pIC50

Nc1c(-c2ccc(F)c3[nH]ncc23)c2cc(N3CC4(COC4)C3)c3cccnc3c2[nH]c1=O [Compound D10]; 8.41
Nc1c(-c2ccc(Cl)c3[nH]ncc23)c2cc(O[C@H]3C[C@H](F)C3)c(Cl)cc2[nH]c1=O [Compound A11]; 8.41

====

Target: MYT1 protein (Homo sapiens (Human), UniProt Q99640)
Assay: MYT1 kinase activity inhibition test (ELISA, phosphorylation of Y15 of CDK1)
Format: biochemical
Conditions: phosphorylation level of Y15 of CDK1 protein caused by MYT1 protein, 60 minutes
pIC50: −log10 of the molar value.
measure.name: pIC50

Nc1c(-c2ccc(F)c3[nH]ncc23)c2cc(C3CCN(C4CCOCC4)CC3)c3ncccc3c2[nH]c1=O; 8.11
N#Cc1cc2c(-c3cccc(O)c3)c(N)c(=O)[nH]c2c2ccccc12; 8.24
Nc1c(-c2ccc(F)c3[nH]ncc23)c2cc(F)c3ccccc3c2[nH]c1=O; 9.36
Nc1c(-c2ccc(F)c3[nH]ncc23)c2cc(O[C@H]3C[C@H](F)C3)c3nccnc3c2[nH]c1=O; 10.07

P: Nc1c(-c2cccc(O)c2)c2ccc3ccccc3c2[nH]c1=O
Q: CCc1cc2c(-c3ccc(F)c4[nH]ncc34)c(N)c(=O)[nH]c2c2ccccc12
Exercise: Identify the entry with the smaller pIC50: P or Q . Your answer should be the label of the entry you select.
Solution: P
(P: 8.40, Q: 9.59)

A: Nc1c(-c2ccc(F)c3[nH]ncc23)c2cc(C3CCC3)c3ccccc3c2[nH]c1=O
B: Nc1c(-c2ccc(F)c3[nH]ncc23)c2cc(C3CC3)c3cccnc3c2[nH]c1=O [Compound D2]
Exercise: Please let me know which one, A or B , has a lower measured pIC50 value. I would appreciate it if you answered with the label of your choice.
Solution: B
